target: CDK6/Cyclin D1 (Homo sapiens (Human), UniProt Q00534)
Sequence (Q00534 whole entry): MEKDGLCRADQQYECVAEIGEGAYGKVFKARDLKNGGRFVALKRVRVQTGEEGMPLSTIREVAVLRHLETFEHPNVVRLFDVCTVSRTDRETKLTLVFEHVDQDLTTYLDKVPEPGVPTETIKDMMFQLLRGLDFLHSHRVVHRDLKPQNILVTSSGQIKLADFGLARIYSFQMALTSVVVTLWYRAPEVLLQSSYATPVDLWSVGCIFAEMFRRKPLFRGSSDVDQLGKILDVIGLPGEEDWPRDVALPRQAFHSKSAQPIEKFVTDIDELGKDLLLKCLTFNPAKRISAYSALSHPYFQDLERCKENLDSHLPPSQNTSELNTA
Sequence (P24385 whole entry partner): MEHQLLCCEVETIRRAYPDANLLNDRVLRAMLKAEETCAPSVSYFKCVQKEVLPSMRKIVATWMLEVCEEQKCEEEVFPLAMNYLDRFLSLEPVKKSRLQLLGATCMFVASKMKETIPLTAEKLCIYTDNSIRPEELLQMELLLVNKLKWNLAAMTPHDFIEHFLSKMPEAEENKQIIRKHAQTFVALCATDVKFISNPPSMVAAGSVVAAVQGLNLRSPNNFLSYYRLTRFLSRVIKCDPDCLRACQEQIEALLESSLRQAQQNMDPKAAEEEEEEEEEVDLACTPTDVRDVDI
measurement.protocol: CDK6/CyclinD1 enzymatic activity assay (TR-FRET)
condition.set: ATP 250 μM, read-out: CDK6_D1 IC50
Experimental: CDK6/CyclinD1 Enzymatic Activity Assay The inhibitory activity of compounds was evaluated in vitro using TR-FRET assay with white 384-well low volume microplate (Greiner Bio-One). CDK6/Cyclin D1 catalyzed phosphorylation of peptide in the presence and absence of compounds was measured and used in IC50 determination. […] The reaction signal was measured by Envision multimode plate reader (PerkinElmer, 2102-0010). […]
quantity.measured: IC50

These solved cases illustrate the format of a correct answer.
- molecule: "CCN1CCN(Cc2ccc(Nc3ncc(F)c(-c4sc5c(nc(C)n5C(C)C)c4C)n3)nc2)CC1"
  IC50: "20 to 200 nM"
- molecule: "CCN1CC2CC1CN2c1ccc(Nc2ncc(F)c(-c3cc4c(=O)n(C)cc(C(C)C)c4s3)n2)nc1 (stereo not drawn)"
  IC50: "≤ 20 nM"

Next up:
Prompt: # query: IC50 of entry "Cc1c(-c2nc(Nc3ccc(N4CC5(CCN(C)CC5)C4)cn3)ncc2F)sc2c(C(C)C)cn(C)c(=O)c12"
Completion: ≤ 20 nM

---

Listed below: pIC50 values for each entry.
target: CDK4/Cyclin D1 (Homo sapiens (Human))
Sequence (P11802 whole entry): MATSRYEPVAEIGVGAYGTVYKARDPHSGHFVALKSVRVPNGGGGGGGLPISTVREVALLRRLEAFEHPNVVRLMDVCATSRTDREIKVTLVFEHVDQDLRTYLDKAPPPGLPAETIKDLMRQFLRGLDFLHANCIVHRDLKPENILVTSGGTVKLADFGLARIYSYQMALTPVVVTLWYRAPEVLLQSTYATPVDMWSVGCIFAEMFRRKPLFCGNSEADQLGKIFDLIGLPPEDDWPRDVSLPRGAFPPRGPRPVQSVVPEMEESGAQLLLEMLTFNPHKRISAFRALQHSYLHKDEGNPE
Sequence (P24385 whole entry partner): as the sequence (P24385 whole entry partner) above
measurement.protocol: CDK4/CyclinD1 enzymatic activity assay (TR-FRET)
condition.set: ATP 2 mM, read-out: CDK4_D1 IC50
pIC50: −log10 of the molar value.

Recorded results for 3 molecules are shown here.
- molecule: "CCN1CCN(c2ccc(Nc3ncc(F)c(-c4sc5c(C(C)O)n(C)nc5c4C)n3)nc2)CC1 (stereo not shown)"
  pIC50: "6.70 to 7.70"
- molecule: "CC(C)c1cn(C)c(=O)c2cc(-c3ccnc(Nc4ccc(C5CCN(C)CC5)cn4)n3)sc12"
  pIC50: "6.70 to 7.70"
- molecule: "CCN1CCN(Cc2ccc(Nc3ncc(F)c(-c4cc5nccc(C(C)C)c5s4)n3)nc2)CC1"
  pIC50: "6.70 to 7.70"

Prompt: # query: pIC50 of entry "Cc1c(-c2nc(Nc3ccc(C4CCNCC4)cn3)ncc2F)sc2c(C(C)C)cn(C)c(=O)c12"
Completion: ≥ 7.70

Prompt: Input "Cc1nc2cc(-c3nc(Nc4ccc(CN5CCN(CC(F)F)CC5)cn4)ncc3F)sc2n1C(C)C"
Completion: 6.70 to 7.70

Prompt: Also check "CCN1CCC(c2ccc(Nc3ncc(F)c(-c4sc5c(nc(C)n5C5CCCC5)c4C)n3)nc2)CC1"
Completion: 6.70 to 7.70

Prompt: Again, but for CCN1CCN(c2ccc(Nc3ncc(F)c(-c4cc5nccc(C(C)(O)C(F)(F)F)c5s4)n3)nc2)CC1 (stereo not shown)
Completion: 6.70 to 7.70

Prompt: Please do the same for Cc1c(-c2nc(Nc3ccc(C4CC[N+](C)([O-])CC4)cn3)ncc2F)sc2c(C(C)C)cn(C)c(=O)c12 (stereo not shown) as well.
Completion: ≥ 7.70

Prompt: Then "Cc1c(-c2nc(Nc3ccccn3)ncc2F)sc2c1nc(C)n2C(C)C" ?
Completion: 6.70 to 7.70

Prompt: Now the same for "CCN1CCN(c2ccc(Nc3ncc(F)c(-c4sc5c(nc(C)n5C5CCCC5)c4C)n3)nc2)CC1"
Completion: ≥ 7.70

Prompt: Next molecule: CCN1CCN(C(C)c2ccc(Nc3ncc(F)c(-c4cc5nc(C)n(C(C)C)c5s4)n3)nc2)CC1 (stereo not shown)
Completion: ≥ 7.70

Prompt: How about "Cc1cnc(Nc2ccc(C3CCN(C)CC3)cn2)nc1-c1cc2c(=O)n(C)cc(C(C)C)c2s1" ?
Completion: ≥ 7.70

Prompt: Cool, now Cc1c(-c2nc(Nc3ccc(C4CCCN(C)C4)cn3)ncc2F)sc2c(C(C)C)cn(C)c(=O)c12 (stereo not shown)
Completion: ≥ 7.70

Prompt: # repeat for "Cc1c(-c2nc(Nc3ccc(C4CN(C)C4)cn3)ncc2F)sc2c1nc(C)n2C(C)C"
Completion: ≥ 7.70

Prompt: // query: "Cc1c(-c2nc(Nc3ccc(N4CCN(C)CC4)cn3)ncc2F)sc2c1nc(C)n2C1CCCC1"
Completion: ≥ 7.70

Prompt: Another: "CCN1CC2(C1)CN(C(=O)c1ccc(Nc3ncc(F)c(-c4cc5nc(C)n(C(C)C)c5s4)n3)nc1)C2"
Completion: ≥ 7.70
